- system.under.test: T1, CD32b (FcgRIIb) (Homo sapiens, UniProt P31994)
- T1 sequence (P31994 43-310): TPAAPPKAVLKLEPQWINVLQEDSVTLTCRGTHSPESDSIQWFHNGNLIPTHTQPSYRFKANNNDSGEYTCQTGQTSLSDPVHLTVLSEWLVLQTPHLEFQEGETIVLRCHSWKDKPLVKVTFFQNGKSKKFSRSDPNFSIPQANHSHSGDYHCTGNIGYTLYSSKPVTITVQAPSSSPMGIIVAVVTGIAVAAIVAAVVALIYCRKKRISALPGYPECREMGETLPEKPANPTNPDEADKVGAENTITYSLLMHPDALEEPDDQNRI
- experiment: SPR, antibody binding to anti-his Fab captured FcgR-his (% Rmax)
- recorded.conditions: 1 μM antibody

- molecule: "mAb6-IgG2.5 (protein, left off: another chain or arm of the molecule) constant: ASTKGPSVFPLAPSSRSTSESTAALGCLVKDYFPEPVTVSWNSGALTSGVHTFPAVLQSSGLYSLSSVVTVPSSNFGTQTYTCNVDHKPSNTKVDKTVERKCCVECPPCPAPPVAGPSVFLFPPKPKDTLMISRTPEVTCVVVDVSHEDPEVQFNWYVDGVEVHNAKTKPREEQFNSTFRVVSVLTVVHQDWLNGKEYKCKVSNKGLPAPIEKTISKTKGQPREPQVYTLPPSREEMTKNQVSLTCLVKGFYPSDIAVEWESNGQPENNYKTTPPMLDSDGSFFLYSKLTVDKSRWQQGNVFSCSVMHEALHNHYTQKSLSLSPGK"
  % Rmax hCD32b (%): 4
- molecule: "mAb7-IgG2.5 (protein, left off: another chain or arm of the molecule) constant: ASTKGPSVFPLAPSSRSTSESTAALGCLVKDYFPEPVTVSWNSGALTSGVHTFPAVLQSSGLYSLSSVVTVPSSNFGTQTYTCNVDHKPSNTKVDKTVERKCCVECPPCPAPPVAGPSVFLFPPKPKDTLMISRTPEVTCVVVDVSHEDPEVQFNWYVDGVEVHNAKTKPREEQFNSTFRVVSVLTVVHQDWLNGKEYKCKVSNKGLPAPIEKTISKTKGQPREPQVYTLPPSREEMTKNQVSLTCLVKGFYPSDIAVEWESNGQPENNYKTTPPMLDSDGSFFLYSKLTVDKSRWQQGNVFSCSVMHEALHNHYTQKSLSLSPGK"
  % Rmax hCD32b (%): 2
- molecule: "mAb12-IgG2.3 (protein, left off: another chain or arm of the molecule) constant: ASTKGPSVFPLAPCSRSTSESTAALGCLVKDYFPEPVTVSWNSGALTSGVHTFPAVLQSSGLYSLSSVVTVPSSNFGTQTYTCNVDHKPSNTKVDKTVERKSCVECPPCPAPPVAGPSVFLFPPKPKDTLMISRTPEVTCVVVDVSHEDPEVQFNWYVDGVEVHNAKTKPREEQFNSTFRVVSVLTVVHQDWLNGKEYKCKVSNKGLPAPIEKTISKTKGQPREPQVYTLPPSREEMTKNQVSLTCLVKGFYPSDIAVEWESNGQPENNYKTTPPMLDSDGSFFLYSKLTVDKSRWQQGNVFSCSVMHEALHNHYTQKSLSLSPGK"
  % Rmax hCD32b (%): 1
- molecule: "mAb11-IgG2.3 (protein, left off: another chain or arm of the molecule) constant: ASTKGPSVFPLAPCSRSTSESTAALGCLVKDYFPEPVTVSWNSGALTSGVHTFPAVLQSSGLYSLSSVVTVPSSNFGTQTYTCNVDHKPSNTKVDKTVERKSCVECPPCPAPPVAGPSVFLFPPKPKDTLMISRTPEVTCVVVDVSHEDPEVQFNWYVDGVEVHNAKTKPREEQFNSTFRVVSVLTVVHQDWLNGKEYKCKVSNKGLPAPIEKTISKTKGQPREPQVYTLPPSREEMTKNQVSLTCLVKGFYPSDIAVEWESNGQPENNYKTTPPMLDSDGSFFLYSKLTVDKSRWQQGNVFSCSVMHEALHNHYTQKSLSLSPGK"
  % Rmax hCD32b (%): 5
